protocol_description: in vitro
conditions_used: human
readout: CC50

Output measured CC50 for this item: `CC(C)OC(=O)[C@H](C)N[P@](=O)(OC[C@H]1O[C@@H](n2ccc(=O)[nH]c2=O)[C@](C)(F)[C@@H]1O)Oc1ccccc1`
> 100 µM

---

Tested on: YFV-17D
protocol_description: microbe, parasite or virus in culture
Type: cell-based
conditions_used: Yellow fever virus, Huh-7, 72 h, read-out: Anti-YFV-17D activity 3D spheroids EC50
readout: EC50 (µM)
Answer in µM, number only, no unit symbol.

{"columns": ["smiles_code", "EC50 (µM)"],
 "data": [
  ["CC(C)OC(=O)[C@H](C)N[P@](=O)(OC[C@H]1O[C@@H](n2ccc(=O)[nH]c2=O)[C@@](F)(Br)[C@@H]1O)Oc1ccccc1", 2.2]
]}

Report value: EC50, system: YFV-17D, compound: `C[C@@]1(O)[C@H](O)[C@@H](CO)O[C@H]1n1cc(F)c2c(N)ncnc21`
5.5

---

Tested on: YFV-17D
protocol_description: microbe, parasite or virus in culture
Format: cell-based
conditions_used: Yellow fever virus, Macrophage, 72 h, read-out: Anti-YFV-17D activity MDM EC50
Items are presented alongside their recorded pEC50.
Note on units: pEC50 is unitless, being -log10 of a concentration expressed in mol/L.

Worked cases, pEC50 given:
{"columns": ["smiles_code", "tested_system", "pEC50"],
 "data": [
  ["CC(C)OC(=O)[C@H](C)N[P@](=O)(OC[C@H]1O[C@@H](n2ccc(=O)[nH]c2=O)[C@](C)(F)[C@@H]1O)Oc1ccccc1", "YFV-17D", 6.00],
  ["CC(C)OC(=O)[C@H](C)N[P@](=O)(OC[C@H]1O[C@@H](n2ccc(=O)[nH]c2=O)[C@@](F)(Br)[C@@H]1O)Oc1ccccc1", "YFV-17D", 6.70]
]}

Consider now this further compound.
Output measured pEC50 for this item: `C[C@@]1(O)[C@H](O)[C@@H](CO)O[C@H]1n1cc(F)c2c(N)ncnc21`
6.30

---

Test system: Huh-7 cells
protocol_description: cells
conditions_used: Homo sapiens, Huh-7, 336 h, read-out: Mitotoxicity (Huh-7) IC50 MtDNA
readout: IC50

Worked cases, IC50 given:
{"columns": ["smiles_code", "IC50"],
 "data": [
  ["CC(C)OC(=O)[C@H](C)N[P@](=O)(OC[C@H]1O[C@@H](n2ccc(=O)[nH]c2=O)[C@@](F)(Br)[C@@H]1O)Oc1ccccc1", "40.9 µM"],
  ["CC(C)OC(=O)[C@H](C)N[P@](=O)(OC[C@H]1O[C@@H](n2ccc(=O)[nH]c2=O)[C@](C)(F)[C@@H]1O)Oc1ccccc1", "> 50 µM"]
]}

Report value: IC50, system: Huh-7 cells, compound: `C[C@@]1(O)[C@H](O)[C@@H](CO)O[C@H]1n1cc(F)c2c(N)ncnc21`
> 50 µM

These entries and their values trace back to paper PMC12057363.
